- assayed_target: T1, Scribble PDZ1 A743R (human, UniProt Q14160 719-829, A743R)
- T1 construct: Scribble, human, PDZ1, aa 719-829 in pETM-11, with A743R; the text describes A743R only in the R762A background; source: E. coli BL21 Gold (DE3), purified (Ni2+ Sepharose)
- T1 sequence (Q14160 719-829 A743R): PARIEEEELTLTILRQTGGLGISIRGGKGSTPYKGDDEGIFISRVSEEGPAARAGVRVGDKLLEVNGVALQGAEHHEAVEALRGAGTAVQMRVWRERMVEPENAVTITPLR
- protocol_notes: ITC; iTC200, 25°C, 20 mM HEPES pH 7.4; protein 50-100 µM in the cell, 0.64-3 mM peptide in the syringe; single-site fit, stoichiometry fixed to 0.8-1.1; triplicate
- condition: both partners purified
Square brackets hold non-standard residues; d marks the D form. Ends that are not written are not given here. pS = N[C@@H](COP(=O)(O)O)C(=O)O
binders and their reported Kd
# output: bare number, implied unit µM

binder	Kd [µM]
MKRLT[pS]TRL (C-terminal nine residues of RPS6KA2, human; also called pRPS6KA2; phospho-RPS6KA2; source: synthetic peptide, bought: GeneCust) [RPS6KA2 peptide MKRLTpSTRL (p-3 phosphorylated)]	2.8

Reported Kd ( MKRLTSTRL (C-terminal nine residues of RPS6KA2, human; source: synthetic peptide, bought: GeneCust) [RPS6KA2 peptide MKRLTSTRL (unphosphorylated)] ) = 15
